Tested on: SK-MEL-5 melanoma
Experiment: NCI-60 one-dose screen, 48 h
Details: 10 µM unless noted
This is part of a sample that, as a whole, favours compounds with a hit. Of some 83,000 tested, about 20% had one in any assay. Activity calls are given as the source filed them. How the source made its calls: active means growth percent below 10; inactive means the rest.
Possible outcomes: TRUE for active, FALSE for inactive

[
  {
    "COMPOUND": "CCCCN1c2nc3ccccc3cc2Sc2cc3ccccc3nc21",
    "CLASS": "FALSE"
  },
  {
    "COMPOUND": "COc1cc(/C=C2\\SC(N3CCCCC3)=NC2=O)ccc1OCCCCCCOc1ccc(/C=C2\\SC(N3CCCCC3)=NC2=O)cc1OC",
    "CLASS": "FALSE"
  },
  {
    "COMPOUND": "CN1CCN(c2nc3scc(-c4ccccc4)c3c(=O)[nH]2)CC1",
    "CLASS": "FALSE"
  },
  {
    "COMPOUND": "O=C(CNC(=O)c1cccc2ccccc12)Nc1ccccc1Oc1cccc(O)c1",
    "CLASS": "FALSE"
  },
  {
    "COMPOUND": "C1=C(Cc2ccccc2)n2cnc3ncnc(c32)S1",
    "CLASS": "FALSE"
  },
  {
    "COMPOUND": "N#Cc1c(NC(=O)c2ccco2)[n+]([O-])c2cc(Cl)c(Cl)cc2[n+]1[O-]",
    "CLASS": "FALSE"
  },
  {
    "COMPOUND": "COc1cc(/C=C/C(=O)CC(=O)/C=C/c2ccc(OC(=O)CCNC34CC5CC(CC(C5)C3)C4)c(OC)c2)ccc1OC(=O)CCNC12CC3CC(CC(C3)C1)C2",
    "CLASS": "FALSE"
  },
  {
    "COMPOUND": "Fc1ccc(-c2nn3c(-c4cc(C(F)(F)F)cc(C(F)(F)F)c4)nnc3s2)cc1",
    "CLASS": "FALSE"
  },
  {
    "COMPOUND": "Cc1ccccc1NC(=O)NC(CC(N)=O)c1ccc2c(c1)nc(-c1cccc(Oc3ccc(C(C)(C)C)cc3)c1)n2CCCN1CCCCC1C (stereo not drawn)",
    "CLASS": "TRUE"
  },
  {
    "COMPOUND": "COc1ccc(CNC(=O)c2c(C)n([O-])c3ccccc3[n+]2=O)cc1",
    "CLASS": "FALSE"
  },
  {
    "COMPOUND": "N/C(=N\\C(N)=N\\c1nc2ccccc2s1)c1ccnc(Cl)c1",
    "CLASS": "FALSE"
  },
  {
    "COMPOUND": "O=C(C(=O)c1cc(Br)ccc1O)c1cc(Br)ccc1O",
    "CLASS": "FALSE"
  },
  {
    "COMPOUND": "Cc1cccc2nnc(-c3ccccc3)n12",
    "CLASS": "FALSE"
  }
]

====

System: CCRF-CEM leukemia
Experiment: NCI-60 one-dose screen, 48 h
Details: 10 µM unless noted
About 83,000 compounds went through this panel and 20% of them were active in at least one assay; those are over-represented in the sample as a whole. Active and inactive are the calls of the source. The calls were made as follows: active = growth percent below 10; inactive = the rest.
Possible outcomes: true (active), false (inactive)

[
  {
    "COMPOUND": "Cc1cc(C)c2c(N)c3cccc(C)c3nc2n1",
    "CLASS": "true"
  },
  {
    "COMPOUND": "COc1cc(C2CC(C3C(=O)N(C)C(=O)N(C)C3=O)=NN2c2cc(Cl)cc(Cl)c2)cc(OC)c1OC (stereo not drawn)",
    "CLASS": "false"
  },
  {
    "COMPOUND": "COc1cc(C2CC(c3ccc(C)cc3)=NN2C=O)ccc1OCCN(C)C (stereo not drawn)",
    "CLASS": "false"
  },
  {
    "COMPOUND": "N#CC(C#N)C(C#N)C#N",
    "CLASS": "false"
  },
  {
    "COMPOUND": "O=C1OC(Oc2ccccc2)(c2ccccc2)c2ccccc21 (stereo not drawn)",
    "CLASS": "false"
  },
  {
    "COMPOUND": "O=C(Oc1ccccc1)C(Br)C(Br)c1ccccc1 (stereo not drawn)",
    "CLASS": "true"
  },
  {
    "COMPOUND": "COc1cnc2c(c1)C(=O)c1c-2n(CCCn2ccnc2)c(=O)c2cc(F)ccc12",
    "CLASS": "true"
  },
  {
    "COMPOUND": "Clc1ccc2nc(CI)c(CI)nc2c1",
    "CLASS": "true"
  },
  {
    "COMPOUND": "Cn1c(=O)c2[nH]c(=S)n(Cc3ccccc3)c2n(C)c1=O",
    "CLASS": "false"
  },
  {
    "COMPOUND": "NS(=O)(=O)c1ccc(-n2ncc3c(N/N=C/c4ccccc4)ncnc32)cc1",
    "CLASS": "false"
  },
  {
    "COMPOUND": "Cc1sc2nc(NCCc3cccs3)[nH]c(=O)c2c1C",
    "CLASS": "false"
  },
  {
    "COMPOUND": "CCOC(=O)c1cc2oc(/C=C/c3cc(=O)c4cc(Cl)ccc4o3)cc2[nH]1",
    "CLASS": "false"
  },
  {
    "COMPOUND": "Cc1n(Cc2ccc3ccccc3c2)cc[n+]1Cc1ccc2ccccc2c1",
    "CLASS": "false"
  },
  {
    "COMPOUND": "COc1cccc(C=Nc2cc(C(C)C)c(O)cc2C)c1O",
    "CLASS": "false"
  },
  {
    "COMPOUND": "Nc1ccn(C2O[C@H](CO)[C@@H](O)[C@@H]2O)c(=O)n1 (stereo partly drawn)",
    "CLASS": "true"
  },
  {
    "COMPOUND": "NC(=NCCCCCCN=C(N)/N=C(\\N)Nc1ccc(Cl)cc1)/N=C(\\N)Nc1ccc(Cl)cc1",
    "CLASS": "false"
  },
  {
    "COMPOUND": "COC(=O)c1c(NC(=O)CSc2nnnn2-c2ccc(OC)cc2)sc(C)c1C",
    "CLASS": "false"
  },
  {
    "COMPOUND": "OC(c1ccccc1)C(NCc1ccccc1)c1ccccc1 (stereo not drawn)",
    "CLASS": "false"
  },
  {
    "COMPOUND": "CCCCc1n(Cc2ccc3ccccc3c2)cc[n+]1Cc1ccc2ccccc2c1",
    "CLASS": "true"
  },
  {
    "COMPOUND": "[N-]=[N+]=NCc1cccc(/C(O)=C/C(=O)C(=O)O)c1",
    "CLASS": "false"
  },
  {
    "COMPOUND": "CCOC(=O)c1cnc2c(C)cc(C)cc2c1NCCCN(C)C",
    "CLASS": "false"
  },
  {
    "COMPOUND": "NC(=O)NS(=O)(=O)c1ccc(N2N=C(C(F)(F)F)CC2c2cc(C(F)(F)F)cc(C(F)(F)F)c2)cc1 (stereo not drawn)",
    "CLASS": "false"
  },
  {
    "COMPOUND": "CCCn1c(N)c(C(=O)CNc2ccc(I)cc2)c(=O)[nH]c1=O",
    "CLASS": "false"
  },
  {
    "COMPOUND": "Cc1ccc2nc(SCC(=O)Nc3ccc(-c4nc5ccccc5s4)c(Cl)c3)[nH]c2c1",
    "CLASS": "false"
  },
  {
    "COMPOUND": "CCC(=O)Nc1cc2c(cc1Cl)-c1ccccc1C2",
    "CLASS": "false"
  },
  {
    "COMPOUND": "Cc1cc(=O)oc2cc(OCCn3c(C)nn(-c4ccc(Cl)cc4)c3=O)ccc12",
    "CLASS": "false"
  },
  {
    "COMPOUND": "O=C(Nc1ccccc1OC(=O)c1ccccc1)c1ccccc1",
    "CLASS": "false"
  },
  {
    "COMPOUND": "O=c1ccn(C2CC=C(CO)O2)c(=O)[nH]1 (stereo not drawn)",
    "CLASS": "false"
  },
  {
    "COMPOUND": "COc1cnc2c(c1)C(=O)c1c-2n(CCCNC(C)C)c(=O)c2cc(F)ccc12",
    "CLASS": "true"
  },
  {
    "COMPOUND": "CN1CCC[C@@H]1CCO[C@](C)(c1ccccc1)c1ccc(Cl)cc1",
    "CLASS": "false"
  },
  {
    "COMPOUND": "Cc1sc2nc(N3CCCCC3)[nH]c(=O)c2c1C",
    "CLASS": "false"
  },
  {
    "COMPOUND": "O=C(N/N=C/c1ccc(Cl)cc1Cl)c1ccccc1Nc1cccc(C(F)(F)F)c1",
    "CLASS": "false"
  },
  {
    "COMPOUND": "N#Cc1c(-c2ccccc2)cc(-c2ccccc2)n(CC(=O)O)c1=O",
    "CLASS": "false"
  },
  {
    "COMPOUND": "CC1CN(C2CCCCC2)C(=O)NC1=O (stereo not drawn)",
    "CLASS": "false"
  },
  {
    "COMPOUND": "COC(=O)CC1=C(c2ccc([N+](=O)[O-])cc2)CCC1=O",
    "CLASS": "false"
  },
  {
    "COMPOUND": "CN1CCN(CCCOc2ccc3ncnc(Nc4ccc(OCc5cccc(F)c5)c(Cl)c4)c3c2)CC1",
    "CLASS": "true"
  },
  {
    "COMPOUND": "O=C(O)CCC(=O)OC[C@@H](NC(=O)C(Cl)Cl)[C@H](O)c1ccc([N+](=O)[O-])cc1",
    "CLASS": "false"
  },
  {
    "COMPOUND": "O=C1c2cc3c(cc2-c2c1c1ccc(Cl)cc1c(=O)n2CCCNCCO)OCO3",
    "CLASS": "true"
  }
]

Provenance of the data: PubChem BioAssay (NCI)
